Test protocol: Clinical exposure (plasma PK) with continuous and intermittent 5/2 dosing
Format: in vivo, human
Run conditions: human, plasma, oral, 350 mg, 350 once daily, Continuous; mean steady state (Day 12/11); read-out: AUC24
Measured quantity: AUC (ng·h/mL)

1) C=CCn1c(=O)c2cnc(Nc3ccc(N4CCN(C)CC4)cc3)nc2n1-c1ccc2c(n1)[C@@](O)(CC)CC2
7140

----------
Test protocol: Clinical exposure (plasma PK) with continuous and intermittent 5/2 dosing
Format: in vivo, human
Run conditions: human, plasma, oral, 350 mg, 350 once daily, 5/2; mean steady state (Day 12/11)
Measured quantity: Cmax

1) C=CCn1c(=O)c2cnc(Nc3ccc(N4CCN(C)CC4)cc3)nc2n1-c1ccc2c(n1)[C@@](O)(CC)CC2
1490 ng/mL

----------
Test protocol: Clinical exposure (plasma PK) with continuous and intermittent 5/2 dosing
Assay type: in vivo, human
Run conditions: human, plasma, oral, 350 mg, 350 once daily, Continuous; mean steady state (Day 12/11)
Measured quantity: Tmax (h)

1) C=CCn1c(=O)c2cnc(Nc3ccc(N4CCN(C)CC4)cc3)nc2n1-c1ccc2c(n1)[C@@](O)(CC)CC2 [Azenosertib]
2.2

----------
Test protocol: Clinical exposure (plasma PK) with continuous and intermittent 5/2 dosing
Assay type: in vivo, human
Run conditions: human, plasma, oral, 175 mg, 175 twice daily, 5/2; steady state (Day 12/11)
Measured quantity: Cmax (ng/mL)

1. C=CCn1c(=O)c2cnc(Nc3ccc(N4CCN(C)CC4)cc3)nc2n1-c1ccc2c(n1)[C@@](O)(CC)CC2
1470

----------
Test protocol: Clinical exposure (plasma PK) with continuous and intermittent 5/2 dosing
Assay type: in vivo, human
Run conditions: human, plasma, oral, 350 mg, 350 once daily, 5/2; steady state (Day 12/11); read-out: AUC24
Measured quantity: AUC

1) C=CCn1c(=O)c2cnc(Nc3ccc(N4CCN(C)CC4)cc3)nc2n1-c1ccc2c(n1)[C@@](O)(CC)CC2
10.3 to 15.8 µg·h/mL

----------
Test protocol: Clinical exposure (plasma PK) with continuous and intermittent 5/2 dosing
Assay type: in vivo, human
Run conditions: human, plasma, oral, 350 mg, 350 once daily, 5/2; mean steady state (Day 12/11)
Measured quantity: Tmax

1. C=CCn1c(=O)c2cnc(Nc3ccc(N4CCN(C)CC4)cc3)nc2n1-c1ccc2c(n1)[C@@](O)(CC)CC2
3 h

----------
Test protocol: Clinical exposure (plasma PK) with continuous and intermittent 5/2 dosing
Type: in vivo, human
Run conditions: human, plasma, oral, 175 mg, 175 twice daily, 5/2; steady state (Day 12/11); read-out: AUC24
Measured quantity: AUC

1) C=CCn1c(=O)c2cnc(Nc3ccc(N4CCN(C)CC4)cc3)nc2n1-c1ccc2c(n1)[C@@](O)(CC)CC2
13300 ng·h/mL

----------
Test protocol: Clinical exposure (plasma PK) with continuous and intermittent 5/2 dosing
Type: in vivo, human
Run conditions: human, plasma, oral, 175 mg, 175 twice daily, Continuous; mean steady state (Day 12/11); read-out: AUC24
Measured quantity: AUC (ng·h/mL)

1) C=CCn1c(=O)c2cnc(Nc3ccc(N4CCN(C)CC4)cc3)nc2n1-c1ccc2c(n1)[C@@](O)(CC)CC2
10800

----------
Test protocol: Clinical exposure (plasma PK) with continuous and intermittent 5/2 dosing
Type: in vivo, human
Run conditions: human, plasma, oral, 350 mg, 350 once daily, Continuous; mean steady state (Day 12/11)
Measured quantity: Cmax (ng/mL)

1) C=CCn1c(=O)c2cnc(Nc3ccc(N4CCN(C)CC4)cc3)nc2n1-c1ccc2c(n1)[C@@](O)(CC)CC2
840
